All figures here come from ChEMBL document CHEMBL3351306.

System: MT2
Assay: Cytotoxicity against human MT2 cells assessed as cell viability
Assay type: cell-based
observable: CC50 (µM)
Quick note: give the figure in µM, leave out the unit.

# count of solved cases: 6
molecule	CC50 [µM]
Cc1cc(C#N)cc(C)c1Oc1cc(Nc2ccc(C#N)cc2)c(N)cc1CO	122
COCc1cc(N)c(Nc2ccc(C#N)cc2)cc1Oc1c(C)cc(/C=C/C#N)cc1C	50.3
Cc1cc(C#N)cc(C)c1Oc1cc(Nc2ccc(C#N)cc2)c(N)cc1CN1CCN(C)CC1	96.9
CC(=O)OCc1cc(N)c(Nc2ccc(C#N)cc2)cc1Oc1c(C)cc(/C=C/C#N)cc1C	96.3
CNCc1cc(N)c(Nc2ccc(C#N)cc2)cc1Oc1c(C)cc(C#N)cc1C	12.7
Cc1cc(C#N)cc(C)c1Oc1cc(Nc2ccc(C#N)cc2)c(N)cc1CNCCCO	15.1

Switching to the query record.
In: Provide CC50 value for the following molecule: Cc1cc(C#N)cc(C)c1Oc1cc(Nc2ccc(C#N)cc2)c(N)cc1COC(C)C
Out: 89.4

* * *

Entries and their measured selectivity ratio follow.
Assay: Selectivity index, ratio of CC50 for human MT2 cells to EC50 for wild type HIV1 3B
Format: toxicity, cell-based
Conditions: read-out: Selectivity Index
In your answer, state the number alone without any accompanying words.

# count of solved cases: 3
Cc1cc(C#N)cc(C)c1Oc1cc(Nc2ccc(C#N)cc2)c(N)cc1COC(C)C 6390
CNCc1cc(N)c(Nc2ccc(C#N)cc2)cc1Oc1c(C)cc(C#N)cc1C 1280
COCc1cc(N)c(Nc2ccc(C#N)cc2)cc1Oc1c(C)cc(/C=C/C#N)cc1C 8760

In: Provide selectivity ratio value for the following compound: Cc1cc(C#N)cc(C)c1Oc1cc(Nc2ccc(C#N)cc2)c(N)cc1CNC1CC1
Out: 1140

* * *

Test: Aqueous solubility of the compound at pH 7.4 by HPLC analysis
Format: physicochemical
Conditions: buffer
Use criterion met when the recorded solubility is no lower than 0.9 µg/mL; use criterion not met when it is lower.

Reference set, count: 6
CNCc1cc(N)c(Nc2ccc(C#N)cc2)cc1Oc1c(C)cc(C#N)cc1C criterion met
Cc1cc(C#N)cc(C)c1Oc1cc(Nc2ccc(C#N)cc2)c(N)cc1CNC1CC1 criterion met
COCc1cc(N)c(Nc2ccc(C#N)cc2)cc1Oc1c(C)cc(C#N)cc1C criterion not met
Cc1cc(C#N)cc(C)c1Oc1cc(Nc2ccc(C#N)cc2)c(N)cc1CO criterion not met
CC(=O)OCc1cc(N)c(Nc2ccc(C#N)cc2)cc1Oc1c(C)cc(/C=C/C#N)cc1C criterion not met
Cc1cc(C#N)cc(C)c1Oc1cc(Nc2ccc(C#N)cc2)c(N)cc1CNCCCO criterion met

Proceed to the following item.
In: Textbook exercise: given the entry CC(=O)OCc1cc(N)c(Nc2ccc(C#N)cc2)cc1Oc1c(C)cc(CCC#N)cc1C , state whether its solubility is greater than or equal to 0.9 µg/mL.
Out: criterion met

* * *

Entries and their measured solubility follow.
Test: Aqueous solubility of the compound at pH 2 by HPLC analysis
Format: physicochemical
Conditions: buffer
Quick note: give the figure in µg/mL, leave out the unit.

CC(=O)OCc1cc(N)c(Nc2ccc(C#N)cc2)cc1Oc1c(C)cc(C#N)cc1C 16.7
COCc1cc(N)c(Nc2ccc(C#N)cc2)cc1Oc1c(C)cc(CCC#N)cc1C 1.82
Cc1cc(C#N)cc(C)c1Oc1cc(Nc2ccc(C#N)cc2)c(N)cc1CNCCCO 290

In: Provide solubility value for the following compound: Cc1cc(C#N)cc(C)c1Oc1cc(Nc2ccc(C#N)cc2)c(N)cc1CNC1CC1
Out: 286

In: Provide solubility value for the following compound: CNCc1cc(N)c(Nc2ccc(C#N)cc2)cc1Oc1c(C)cc(C#N)cc1C
Out: 263

In: Provide solubility value for the following compound: COCc1cc(N)c(Nc2ccc(C#N)cc2)cc1Oc1c(C)cc(/C=C/C#N)cc1C
Out: 1.7

In: Provide solubility value for the following compound: COCc1cc(N)c(Nc2ccc(C#N)cc2)cc1Oc1c(C)cc(C#N)cc1C
Out: 3.75

In: Provide solubility value for the following compound: Cc1cc(C#N)cc(C)c1Oc1cc(Nc2ccc(C#N)cc2)c(N)cc1CO
Out: 9.12

In: Provide solubility value for the following compound: CC(=O)OCc1cc(N)c(Nc2ccc(C#N)cc2)cc1Oc1c(C)cc(CCC#N)cc1C
Out: 2.63

In: Provide solubility value for the following compound: CC(=O)OCc1cc(N)c(Nc2ccc(C#N)cc2)cc1Oc1c(C)cc(/C=C/C#N)cc1C
Out: 1.87
